Where these numbers come from: patent US20250255848A1

Tgt: ERα (Homo sapiens (Human), UniProt P03372)
Sequence (P03372 whole entry): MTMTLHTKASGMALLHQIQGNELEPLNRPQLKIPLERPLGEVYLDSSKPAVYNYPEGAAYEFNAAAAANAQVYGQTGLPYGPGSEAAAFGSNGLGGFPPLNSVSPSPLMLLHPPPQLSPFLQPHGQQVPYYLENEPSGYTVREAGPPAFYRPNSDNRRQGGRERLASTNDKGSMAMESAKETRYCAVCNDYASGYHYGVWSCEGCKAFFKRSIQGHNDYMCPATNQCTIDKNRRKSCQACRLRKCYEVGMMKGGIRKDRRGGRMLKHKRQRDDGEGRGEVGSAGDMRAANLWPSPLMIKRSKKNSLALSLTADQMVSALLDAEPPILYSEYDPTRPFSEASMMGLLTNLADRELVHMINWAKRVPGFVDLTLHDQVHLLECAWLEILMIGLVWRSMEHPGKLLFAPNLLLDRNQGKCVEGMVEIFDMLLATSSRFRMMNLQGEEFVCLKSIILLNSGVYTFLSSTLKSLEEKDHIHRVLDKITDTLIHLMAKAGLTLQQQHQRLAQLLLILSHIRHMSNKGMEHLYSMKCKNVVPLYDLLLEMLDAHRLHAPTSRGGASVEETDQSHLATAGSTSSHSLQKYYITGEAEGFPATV
Assay info: Estrogen receptor degradation activity: breast cancer cell ERα in cell western assay
Assay type: cell-based
Condition info: MCF7 cells, 0.3 μM, 4 hours; normalised to fulvestrant 0.1 μM and DMSO
Quantity: % Degradation At 0.3 μM (%)

Below, 2 compounds whose answers are already recorded.
> print(dat)
                                   compound                                       tgt  result.unit  result
1  COc1cc(C2=C(c3ccc(C=C4CN(CCCF)C4)cc3)c3ccc(C(=O)O)cc3CCC2)ccc1C(F)F  ERα (Homo sapiens (Human), UniProt P03372)            %      95
2  Cc1ccc(C(F)F)c(C2=C(c3ccc(C=C4CN(CCCF)C4)cc3)c3ccc(C(=O)O)cc3CCC2)c1  ERα (Homo sapiens (Human), UniProt P03372)            %      93

a: COc1cc(C)c(C2=C(c3ccc(C=C4CN(CCCF)C4)cc3)c3ccc(C(=O)O)cc3CCC2)c(C)c1
b: Cc1c(Cl)cccc1C1=C(c2ccc(C=C3CN(CCC(F)F)C3)cc2)c2ccc(O)cc2CCC1
Could you kindly indicate whether a or b has the higher % Degradation At 0.3 μM value? Answer = label.
a
(a: 91%, b: 53%)

###

Tgt: ERα (Homo sapiens (Human), UniProt P03372)
Assay info: Estrogen receptor degradation activity: breast cancer cell ERα in cell western assay
Assay type: cell-based
Condition info: MCF7 cells, 0.3 μM, 4 hours; normalised to fulvestrant 0.1 μM and DMSO
Protocol: Said test involves measuring the in vitro degradation activity of the compounds of the Table 1a. The measurements of the degradation activities were made using a breast cancer cell ERα in cell western assay as described hereunder. […] The % of ERα levels decrease were determined as follows: % inhibition=100*(1−(sample−fulvestrant:DMSO−fulvestrant)).
Quantity: % Degradation At 0.3 μM (%)

> print(dat)
                                    compound  result
 1  CCc1c(Cl)cccc1C1=C(c2ccc(C=C3CN(CCCF)C3)cc2)c2ccc(C(=O)O)cc2CCC1      91
 2  COc1c(C2=C(c3ccc(C=C4CN(CCCF)C4)cc3)c3ccc(C(=O)O)cc3CCC2)cccc1C(F)(F)F      94
 3  COc1cccc(C2=C(c3ccc(C=C4CN(CCCF)C4)cc3)c3ccc(C(=O)O)cc3CCC2)c1C(F)(F)F      94
 4  COc1cc(Cl)cc(C)c1C1=C(c2ccc(C=C3CN(CCCF)C3)cc2)c2ccc(C(=O)O)cc2CCC1      94
 5  CCc1ccc(C2=C(c3ccc(C=C4CN(CCCF)C4)cc3)c3ccc(C(=O)O)cc3CCC2)c(C(F)(F)F)c1      92
 6  Cc1cc(C)c(C2=C(c3ccc(C=C4CN(CCCF)C4)cc3)c3ccc(C(=O)O)cc3CCC2)c(Cl)c1      92
 7  COc1ccc(C(F)(F)F)c(C2=C(c3ccc(C=C4CN(CCCF)C4)cc3)c3ccc(C(=O)O)cc3CCC2)c1      93
 8  O=C(O)c1ccc2c(c1)CCCC(c1ccc(Cl)cc1Cl)=C2c1ccc(C=C2CN(CC(F)CF)C2)cc1 (single isomer, unassigned) [Compound 69]      74
 9  COc1ccc(C(F)F)c(C2=C(c3ccc(C=C4CN(CCCF)C4)cc3)c3ccc(C(=O)O)cc3CCC2)c1      93
10  COc1cc(C(F)F)ccc1C1=C(c2ccc(C=C3CN(CCCF)C3)cc2)c2ccc(C(=O)O)cc2CCC1      93
11  Cc1ccc(C2=C(c3ccc(C=C4CN(CCCF)C4)cc3)c3ccc(C(=O)O)cc3CCC2)c(C)c1Cl      91
12  O=C(O)c1ccc2c(c1)CCCC(c1ccc(C(F)F)cc1C(F)(F)F)=C2c1ccc(C=C2CN(CCCF)C2)cc1      92
13  CC1(C)CCC(C2=C(c3ncc(C=C4CN(CCC(F)F)C4)cc3F)c3ccc(C(=O)O)cc3CCC2)CC1      86
14  Cc1cccc(OC(F)(F)F)c1C1=C(c2ccc(C=C3CN(CCCF)C3)cc2)c2ccc(C(=O)O)cc2CCC1      95
15  Cc1ccc(C(F)(F)F)c(C)c1C1=C(c2ccc(C=C3CN(CCCF)C3)cc2)c2ccc(C(=O)O)cc2CCC1      91
16  Cc1cc(C(F)(F)F)c(C)cc1C1=C(c2ccc(C=C3CN(CCCF)C3)cc2)c2ccc(C(=O)O)cc2CCC1      94
17  O=C(O)c1ccc2c(c1)CCCC(c1c(F)cccc1C(F)(F)F)=C2c1ccc(C=C2CN(CCCF)C2)cc1      94
18  O=C(O)c1ccc2c(c1)CCCC(c1c(Cl)cccc1C(F)(F)F)=C2c1ccc(C=C2CN(CCCF)C2)cc1      92
19  Cc1cc(C(F)F)ccc1C1=C(c2ccc(C=C3CN(CCCF)C3)cc2)c2ccc(C(=O)O)cc2CCC1      93
20  C[C@H]1CC[C@@H](C2=C(c3ccc(C=C4CN(CCCF)C4)cc3)c3ccc(C(=O)O)cc3CCC2)CC1      91
21  O=C(O)c1ccc2c(c1)CCCC(c1cccc3c1OCCC3)=C2c1ccc(C=C2CN(CCCF)C2)cc1      90
22  COc1cccc(C2=C(c3ccc(C=C4CN(CCCF)C4)cc3)c3ccc(C(=O)O)cc3CCC2)c1OC      92
23  O=C(O)c1ccc2c(c1)CCCC(c1ccccc1C(F)F)=C2c1ccc(C=C2CN(CCCF)C2)cc1      93
24  O=C(O)c1ccc2c(c1)CCCC(c1cccc(Cl)c1OC(F)(F)F)=C2c1ccc(C=C2CN(CCCF)C2)cc1      94

###

Tgt: UniProt P03372
Assay info: Estrogen receptor degradation activity: breast cancer cell ERα in cell western assay
Assay type: cell-based
Condition info: MCF7 cells, 0.3 μM, 4 hours; normalised to fulvestrant 0.1 μM and DMSO
Quantity: % Degradation At 0.3 μM (%)

> print(dat)
                         structure.notation                 quantity  result
1  CCc1cc(C(F)(F)F)ccc1C1=C(c2ccc(C=C3CN(CCCF)C3)cc2)c2ccc(C(=O)O)cc2CCC1  % Degradation At 0.3 μM      91
2  COc1cc(C(F)(F)F)ccc1C1=C(c2ccc(C=C3CN(CCCF)C3)cc2)c2ccc(C(=O)O)cc2CCC1  % Degradation At 0.3 μM      92
3  Cc1ccc(F)c(C)c1C1=C(c2ccc(C=C3CN(CCCF)C3)cc2)c2ccc(C(=O)O)cc2CCC1  % Degradation At 0.3 μM      95
4  COc1cc(C2=C(c3ccc(C=C4CN(CCCF)C4)cc3)c3ccc(C(=O)O)cc3CCC2)ccc1C(F)(F)F  % Degradation At 0.3 μM      92

###

Tgt: ERα (Homo sapiens (Human), UniProt P03372)
Assay info: Estrogen receptor degradation activity: breast cancer cell ERα in cell western assay
Condition info: MCF7 cells, 4 hours post compound addition; concentration which degrades 50% of the estrogen receptor
Quantity: IC50 (nM)

# annotated cases, reported IC50 shown
> print(dat)
                                   molecule  result
1  O=C(O)c1ccc2c(c1)CCCC(c1ccc(C(F)F)cc1)=C2c1ccc(C=C2CN(CCCF)C2)cc1 [Compound 55]     0.6
2  COc1ccc(C(F)(F)F)c(C2=C(c3ccc(C=C4CN(CCCF)C4)cc3)c3ccc(C(=O)O)cc3CCC2)c1 [Compound 47]     0.5
3  COc1cc(C(F)F)ccc1C1=C(c2ccc(C=C3CN(CCCF)C3)cc2)c2ccc(C(=O)O)cc2CCC1 [Compound 29]     0.6
4  CC1(C)CCC(C2=C(c3ncc(C=C4CN(CCC(F)F)C4)cc3F)c3ccc(C(=O)O)cc3CCC2)CC1 [Compound 66]     1.7
5  COc1cc(C(F)(F)F)ccc1C1=C(c2ccc(C=C3CN(CCCF)C3)cc2)c2ccc(C(=O)O)cc2CCC1 [Compound 59]     0.9

A: O=C(O)c1ccc2c(c1)CCCC(c1cccc(F)c1CF)=C2c1ccc(C=C2CN(CCCF)C2)cc1 [Compound 38]
B: Cc1ccc(C(F)F)c(C2=C(c3ccc(C=C4CN(CCCF)C4)cc3)c3ccc(C(=O)O)cc3CCC2)c1 [Compound 57]
Among A and B , whose measured IC50 is the smaller figure? Reply with the label of the item you choose.
A

I: COc1cc(Cl)cc(C)c1C1=C(c2ccc(C=C3CN(CCCF)C3)cc2)c2ccc(C(=O)O)cc2CCC1 [Compound 83]
II: COc1cccc(C)c1C1=C(c2ccc(C=C3CN(CCCF)C3)cc2)c2ccc(C(=O)O)cc2CCC1 [Compound 4]
III: COc1cccc(C2=C(c3ccc(C=C4CN(CCCF)C4)cc3)c3ccc(C(=O)O)cc3CCC2)c1C [Compound 41]
Arrange items by their IC50 values in increasing order. Output the labels ranked as instructed.
I, III, II
(I: 0.4 nM, III: 0.7 nM, II: 1.1 nM)

a: Cc1cc(C2=C(c3ccc(C=C4CN(CCCF)C4)cc3)c3ccc(C(=O)O)cc3CCC2)c(C)cc1F [Compound 27]
b: O=C(O)c1ccc2c(c1)CCCC(c1c(Cl)cccc1C(F)(F)F)=C2c1ccc(C=C2CN(CCCF)C2)cc1 [Compound 16]
Higher IC50: a or b ? Output the label that corresponds to your choice.
a

I: COc1cc(C(F)(F)F)cc(C(F)(F)F)c1C1=C(c2ccc(C=C3CN(CCCF)C3)cc2)c2ccc(C(=O)O)cc2CCC1 [Compound 71]
II: Cc1c(Cl)cccc1C1=C(c2ccc(C=C3CN(CCC(F)F)C3)cc2)c2ccc(O)cc2CCC1 [Compound 42]
III: CCc1cccc(C2=C(c3ccc(C=C4CN(CCCF)C4)cc3)c3ccc(C(=O)O)cc3CCC2)c1C(F)(F)F [Compound 8]
IV: Cc1cc(C)c(C2=C(c3ccc(C=C4CN(CCCF)C4)cc3)c3ccc(C(=O)O)cc3CCC2)c(F)c1 [Compound 76]
V: CCc1c(F)cccc1C1=C(c2ccc(C=C3CN(CCCF)C3)cc2)c2ccc(C(=O)O)cc2CCC1 [Compound 39]
Hey, quick one: sort these by IC50, largest value first please. Answer by writing out the labels in the requested order.
II, III, I, V, IV
